- SYSTEM TESTED: Aurora kinase B (Homo sapiens, UniProt Q96GD4); also: in the data inactive means no Kd found up to 30 µM
- Sequence (Q96GD4 whole entry): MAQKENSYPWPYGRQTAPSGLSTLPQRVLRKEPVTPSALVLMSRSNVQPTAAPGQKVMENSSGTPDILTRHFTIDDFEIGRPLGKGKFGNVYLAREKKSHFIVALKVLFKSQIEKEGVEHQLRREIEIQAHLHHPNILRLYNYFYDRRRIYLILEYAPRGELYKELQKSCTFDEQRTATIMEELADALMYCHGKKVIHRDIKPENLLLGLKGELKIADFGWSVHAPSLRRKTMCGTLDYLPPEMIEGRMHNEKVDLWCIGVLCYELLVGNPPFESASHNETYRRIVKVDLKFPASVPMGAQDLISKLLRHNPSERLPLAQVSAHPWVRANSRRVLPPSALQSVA
The source made the active and inactive calls.
Pick one: yes = active, no = inactive

Please review the following examples before continuing.
INSERT INTO assay_data (molecule, assigned_class) VALUES
  ('NC1(c2ccc(-c3nc4ccn5c(=O)[nH]nc5c4cc3-c3ccccc3)cc2)CCC1', 'no'),
  ('CNC(=O)c1cc(Oc2ccc(NC(=O)Nc3cc(C(C)(C)C)nn3-c3ccc4ncccc4c3)c(F)c2)ccn1', 'no'),
  ('NC(=O)Nc1cc(-c2cccc(F)c2)sc1C(=O)N[C@H]1CCCNC1', 'yes');

# evaluate next
Task item: Assay outcome for CC(=O)c1cnc2ccc(-c3cc(Cl)c(O)c(Cl)c3)nc2c1N[C@H]1CC[C@H](CN(C)C)CC1 : what was it?
Reply: yes

----------
- SYSTEM TESTED: Non-receptor tyrosine-protein kinase TNK1 (Homo sapiens); also: in the data inactive means no Kd found up to 30 µM
- Sequence (Q13470 whole entry): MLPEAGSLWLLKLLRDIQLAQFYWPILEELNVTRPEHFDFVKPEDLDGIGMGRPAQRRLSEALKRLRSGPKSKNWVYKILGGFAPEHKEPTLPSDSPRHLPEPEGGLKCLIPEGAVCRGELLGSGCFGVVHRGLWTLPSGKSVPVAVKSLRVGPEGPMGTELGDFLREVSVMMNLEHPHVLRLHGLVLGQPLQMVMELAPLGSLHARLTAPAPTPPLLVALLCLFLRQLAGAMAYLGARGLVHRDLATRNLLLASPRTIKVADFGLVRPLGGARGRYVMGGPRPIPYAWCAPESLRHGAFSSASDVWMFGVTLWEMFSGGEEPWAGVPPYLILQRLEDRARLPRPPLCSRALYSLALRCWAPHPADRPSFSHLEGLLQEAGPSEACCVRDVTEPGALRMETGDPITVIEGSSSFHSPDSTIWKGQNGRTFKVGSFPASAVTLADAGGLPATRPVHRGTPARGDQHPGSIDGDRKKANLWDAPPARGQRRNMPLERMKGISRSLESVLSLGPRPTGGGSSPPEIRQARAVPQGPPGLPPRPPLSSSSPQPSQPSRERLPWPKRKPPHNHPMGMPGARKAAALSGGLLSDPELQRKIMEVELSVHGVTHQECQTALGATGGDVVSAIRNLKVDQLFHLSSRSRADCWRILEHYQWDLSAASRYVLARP
The source made the active and inactive calls.
Assign a class; possible classes are active, inactive

Completed entries (count: 6):
INSERT INTO assay_data (molecule, assigned_class) VALUES
  ('Cc1nc2cc(-c3nn(C(C)C)c4ncnc(N)c34)ccc2o1', 'inactive'),
  ('CO[C@H]1C[C@@H]2CC[C@@H](C)[C@@](O)(O2)C(=O)C(=O)N2CCCC[C@H]2C(=O)O[C@H]([C@H](C)C[C@@H]2CC[C@@H](O)[C@H](OC)C2)CC(=O)[C@H](C)/C=C(\C)[C@@H](O)[C@@H](OC)C(=O)[C@H](C)C[C@H](C)/C=C/C=C/C=C/1C', 'inactive'),
  ('CNC(=O)c1cc(Oc2ccc(NC(=O)Nc3cc(C(C)(C)C)nn3-c3ccc4ncccc4c3)c(F)c2)ccn1', 'active'),
  ('C=CC(=O)N1CCC[C@H](n2c(=O)n(-c3ccc(Oc4ccccc4)cc3)c3c(N)ncnc32)C1', 'inactive'),
  ('NC(=O)Nc1cc(-c2cccc(F)c2)sc1C(=O)N[C@H]1CCCNC1', 'inactive'),
  ('FC(F)(F)c1ccc(/C=C/c2nc(COc3ccc(CCCCn4ccnn4)cc3)co2)cc1', 'inactive');

Task item: Tell me the assay call for CN1CCN(CCOc2cc(OC3CCOCC3)c3c(Nc4c(Cl)ccc5c4OCO5)ncnc3c2)CC1 please.
Reply: inactive

Task item: Then what about the molecule C[C@@H](N)c1ccc(C(=O)Nc2ccnc3[nH]ccc23)cc1 ?
Reply: inactive

Task item: And the next one, CCNC(=O)C#Cc1ccc2c(c1)NC(=O)/C2=C(\Nc1ccc(CN(C)C)cc1)c1ccccc1 ?
Reply: inactive

Task item: Would you mind doing O=c1[nH]ccc2cc(OC3CCNCC3)ccc12 [SAR-407899 FREE BASE] as well?
Reply: inactive

----------
Please consider the recorded Kd for Casein kinase I isoform epsilon (Homo sapiens) in what follows.
Activity calls are given as the source filed them.

Here are 3 compounds together with their reported answers.
INSERT INTO results (chemical_string, measured_attribute, reported_result) VALUES
  ('COc1cc2c(Nc3ccc(Cl)c(Cl)c3F)ncnc2cc1OC[C@@H]1C[C@@H]2CN(C)C[C@@H]2C1', 'Kd', '1020 nM'),
  ('NC(=O)c1c(OCc2c(F)cc(Br)cc2F)nsc1NC(=O)NCCCCN1CCCC1', 'Kd', '1470 nM'),
  ('Cc1nc(NC(=O)N2CCC[C@H]2C(N)=O)sc1-c1ccnc(C(C)(C)C(F)(F)F)c1', 'Kd', '> 30000 nM (inactive)');

Task item: Enter reported Kd observed with Casein kinase I isoform epsilon (Homo sapiens) for O=C(Nc1cc(C(F)(F)F)cc(C(F)(F)F)c1)c1cc(Cl)ccc1O
Sequence (P49674 whole entry, canonical isoform): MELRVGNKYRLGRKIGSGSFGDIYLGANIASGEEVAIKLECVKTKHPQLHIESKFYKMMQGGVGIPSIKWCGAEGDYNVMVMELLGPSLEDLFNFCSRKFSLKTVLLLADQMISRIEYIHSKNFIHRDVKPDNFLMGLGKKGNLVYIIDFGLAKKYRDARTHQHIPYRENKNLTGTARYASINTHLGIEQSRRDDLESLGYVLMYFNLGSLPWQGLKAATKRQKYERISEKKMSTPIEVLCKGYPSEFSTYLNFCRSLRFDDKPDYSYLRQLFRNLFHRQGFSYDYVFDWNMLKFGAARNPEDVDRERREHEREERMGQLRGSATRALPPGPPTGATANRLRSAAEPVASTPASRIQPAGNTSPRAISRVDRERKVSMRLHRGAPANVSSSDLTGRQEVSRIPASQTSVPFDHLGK
Reply: > 30000 nM (inactive)

Task item: One more compound: COc1ncc(-c2ccc3nccc(-c4ccnnc4)c3c2)cc1NS(=O)(=O)c1ccc(F)cc1F
Reply: > 30000 nM (inactive)
